Structures can show the parent of a compound that is named as a salt.
quantity_measured: melting point

Solved cases below.
CN1CCC(O)(c2cc(F)cc(F)c2)C1 (stereo not shown) (as salt: oxalic acid salt) [Example 52] ... 150 °C
CCN1CCC(O)(c2cccc(Cl)c2F)C1 (stereo not shown) (as salt: oxalic acid salt) [Example 37] ... 72 to 74 °C
COCCN1CCC(O)(c2cccc(F)c2F)C1 (single isomer, unassigned; (+)) (as salt: oxalic acid salt) [Example 60] ... 149 to 150 °C

In: Bench note: what melting point did CCCCN1CCC(O)(c2cc(F)cc(F)c2)C1 (stereo not shown) (as salt: oxalic acid salt) show?
Out: 146 to 147 °C

* * *

Counter-ions that a name gives are not always drawn.
quantity_measured: melting point

CN1CCC(O)(c2cc(F)cc(Cl)c2)C1 (centres unmarked) (as salt: fumaric acid salt) ... 129 to 131 °C
CCCCN1CCC(O)(c2cccc(F)c2F)C1 (centres unmarked) (as salt: oxalic acid salt) [Example 58] ... 157 to 158 °C
CN1CCC(O)(c2cccc(Cl)c2F)C1 (centres unmarked) (as salt: oxalic acid salt) ... 123 to 125 °C

In: Quick one: melting point for CCN1CCC(O)(c2cccc(Cl)c2Cl)C1 (centres unmarked) (as salt: oxalic acid salt) ?
Out: 206 to 207 °C

In: Also need CN1CCC(O)(c2cccc(F)c2F)C1 (centres unmarked) (as salt: oxalic acid salt) [Example 59] , thanks.
Out: 131 to 132 °C

In: Queued: OC1(c2cccc(F)c2F)CCN(CCC(F)(F)F)C1 (single isomer, unassigned; (-)) (as salt: oxalic acid salt) [Example 48]
Out: 144 °C

In: Same question, Fc1cccc(C2(F)CCNC2)c1F (centres unmarked) (as salt: hydrochloric acid salt) this time
Out: 136 °C

In: Proceed to CCCN1CCC(O)(c2cc(F)cc(Cl)c2)C1 (centres unmarked) (as salt: oxalic acid salt)
Out: 157.2 °C

In: Same thing, different compound: CN1CCC(O)(c2cccc(F)c2F)C1 (centres unmarked) (as salt: oxalic acid salt) [Example 40]
Out: 134.3 °C

In: Also, C=CCN1CCC(O)(c2cccc(F)c2F)C1 (centres unmarked) (as salt: oxalic acid salt) [Example 41] please.
Out: 120 °C

In: Query CCCN1CCC(O)(c2ccc(F)c(F)c2)C1 (centres unmarked) (as salt: oxalic acid salt) [Example 7] next
Out: 131 to 132 °C

In: Another compound to look at: C=CCN1CCC(O)(c2cccc(F)c2F)C1 (centres unmarked) (as salt: oxalic acid salt) [Example 62]
Out: 119 to 120 °C

In: Entry to check: CN1CCC(O)(c2ccc(F)c(F)c2)C1 (centres unmarked) (as salt: fumaric acid salt)
Out: 164 to 166 °C

In: And then CCCN1CCC(O)(c2cc(F)cc(F)c2)C1 (centres unmarked) (as salt: oxalic acid salt) [Example 30] , what is it?
Out: 118 to 119 °C

In: Here is the next compound: CN1CCC(F)(c2cc(F)cc(F)c2)C1 (centres unmarked) (as salt: oxalic acid salt)
Out: 128 to 129 °C

In: Could you do the same for CCN1CCC(O)(c2cccc(Cl)c2F)C1 (centres unmarked) (as salt: fumaric acid salt) , please?
Out: 142 to 145.5 °C

In: Next compound up: C=CCN1CCC(O)(c2cc(F)cc(F)c2)C1 (centres unmarked) (as salt: oxalic acid salt) [Example 44]
Out: 102 to 103 °C

The origin of these recorded values is patent US8188301B2.
